The reported measurements were obtained from the supplement of paper PMC11061612.

- Tested on: IGR-1 (Melanoma)
- assay summary: Bliss excess, mean over the matrix (fraction); higher = more synergy
endpoint label: Bliss excess

INSERT INTO measurements (molecule, result_number) VALUES
  ('COc1cccc(OCCCN)c1-c1cc(Nc2cnc(C#N)cn2)n[nH]1 [Prexasertib] + C=CCn1c(=O)c2cnc(Nc3ccc(N4CCN(C)CC4)cc3)nc2n1-c1cccc(C(C)(C)O)n1 [AZD1775] (first compound max 1 µM, partner max 1 µM)', 0.0284),
  ('CN(CCO)CC[C@H](CSc1ccccc1)Nc1ccc(S(=O)(=O)NC(=O)c2ccc(N3CCC([C@@H](O)c4ccccc4-c4ccc(Cl)cc4)CC3)cc2)cc1S(=O)(=O)C(F)(F)F [AZD4320] + CCN(CCO)CCCOc1ccc2c(Nc3cc(CC(=O)Nc4cccc(F)c4)[nH]n3)ncnc2c1 [AZD2811] (first compound max 1 µM, 7x7, partner max 1 µM)', 0.148);

----------
- Tested on: DOV13 (Ovarian Carcinoma)
- assay summary: combination Emax (second highest fraction inhibited in the dose matrix, 72 h); higher = more inhibition; extreme values may be limits of the assay
Items are presented alongside their recorded combination Emax.
endpoint label: combination Emax

INSERT INTO results (compound, result_number) VALUES
  ('NC1(C(=O)N[C@@H](CCO)c2ccc(Cl)cc2)CCN(c2ncnc3[nH]ccc23)CC1 [Capivasertib] + CC(C)n1c(=O)n(C)c2cnc3cc(F)c(-c4ccc(OCCCN5CCCCC5)nc4)cc3c21 [AZD1390] (first compound max 10 µM, 7x7, partner max 0.3 µM)', 0.462),
  ('Cc1c2c(nn1C)CSCc1cc(n(C)n1)CSc1cc(c3ccccc3c1)OCCCc1c(C(=O)O)n(C)c3c-2c(Cl)ccc13 [AZD5991] + C1CN(CCC1(C(=O)N[C@@H](CCO)C2=CC=C(C=C2)Cl)N)C3=NC=NC4=C3C=CN4 [Capivasertib] (first compound max 1 µM, 7x7, partner max 3 µM)', 0.272);

----------
- System: IHH-4 (Thyroid Gland Carcinoma)
- assay summary: Bliss excess, mean over the matrix (fraction); higher = more synergy
As shown below, each of these molecules has a reported Bliss excess value.
endpoint label: Bliss excess

INSERT INTO measurements (molecule, result) VALUES
  ('CN(C)CCCOc1ccc(-c2ccc3ncc4c(c3c2)n(C2CCOCC2)c(=O)n4C)cn1 [AZD0156] + C[C@@H]1COCCN1C2=NC(=NC(=C2)C3(CC3)[S@](=N)(=O)C)C4=C5C=CNC5=NC=C4 [AZD6738] (first compound max 1 µM, 7x7, partner max 10 µM)', 0.0537),
  ('CC1(C)CCC(CN2CCN(c3ccc(C(=O)NS(=O)(=O)c4ccc(NCC5CCOCC5)c([N+](=O)[O-])c4)c(Oc4cnc5[nH]ccc5c4)c3)CC2)=C(c2ccc(Cl)cc2)C1 [Venetoclax] + C=CCn1c(=O)c2cnc(Nc3ccc(N4CCN(C)CC4)cc3)nc2n1-c1cccc(C(C)(C)O)n1 [AZD1775] (first compound max 1 µM, partner max 1 µM)', -0.0654),
  ('COc1nnc2ccc(N3CCC(c4ccc(OCCN5CCN(C)C(=O)[C@H]5C)cc4)CC3)nn12 [AZD5153] + C=CCn1c(=O)c2cnc(Nc3ccc(N4CCN(C)CC4)cc3)nc2n1-c1cccc(C(C)(C)O)n1 [AZD1775] (first compound max 1 µM, partner max 1 µM)', -0.0294);

----------
- Tested on: KARPAS-1106P (B-Cell Non-Hodgkin's Lymphoma)
- assay summary: Bliss excess, mean over the matrix (fraction); higher = more synergy
Each entry gets Not met if its Bliss excess stays under -0.02, and Met if its Bliss excess is -0.02 or above.

INSERT INTO results (compound, class) VALUES
  ('C=CCn1c(=O)c2cnc(Nc3ccc(N4CCN(C)CC4)cc3)nc2n1-c1cccc(C(C)(C)O)n1 [AZD1775] + CCc1c2c(nc3ccc(O)cc13)-c1cc3c(c(=O)n1C2)COC(=O)[C@]3(O)CC [SN-38] (first compound max 1 µM, partner max 0.3 µM)', 'Not met'),
  ('Cc1c2c(nn1C)CSCc1cc(n(C)n1)CSc1cc(c3ccccc3c1)OCCCc1c(C(=O)O)n(C)c3c-2c(Cl)ccc13 [AZD5991] + CCN(CCO)CCCOc1ccc2c(Nc3cc(CC(=O)Nc4cccc(F)c4)[nH]n3)ncnc2c1 [AZD2811] (first compound max 1 µM, 7x7, partner max 1 µM)', 'Met'),
  ('NC1(C(=O)N[C@@H](CCO)c2ccc(Cl)cc2)CCN(c2ncnc3[nH]ccc23)CC1 [Capivasertib] + C[C@@H]1COCCN1C2=NC(=NC(=C2)C3(CC3)[S@](=N)(=O)C)C4=C5C=CNC5=NC=C4 [AZD6738] (first compound max 10 µM, 7x7, partner max 10 µM)', 'Not met'),
  ('Cn1cnc2c(F)c(Nc3ccc(Br)cc3Cl)c(C(=O)NOCCO)cc21 [Selumetinib] + C[C@@H]1COCCN1C2=NC(=NC(=C2)C3(CC3)[S@](=N)(=O)C)C4=C5C=CNC5=NC=C4 [AZD6738] (first compound max 10 µM, 7x7, partner max 10 µM)', 'Met'),
  ('N#Cc1cnc(Nc2cc(NC[C@H]3CNCCO3)c(C(F)(F)F)cn2)cn1 [SRA737] + C=CCn1c(=O)c2cnc(Nc3ccc(N4CCN(C)CC4)cc3)nc2n1-c1cccc(C(C)(C)O)n1 [AZD1775] (first compound max 10 µM, partner max 1 µM)', 'Met'),
  ('O=C(c1cc(Cc2n[nH]c(=O)c3ccccc23)ccc1F)N1CCN(C(=O)C2CC2)CC1 [Olaparib] + COc1nnc2ccc(N3CCC(c4ccc(OCCN5CCN(C)C(=O)[C@H]5C)cc4)CC3)nn12 [AZD5153] (first compound max 10 µM, 7x7, partner max 1 µM)', 'Met'),
  ('CC1(C)CCC(CN2CCN(c3ccc(C(=O)NS(=O)(=O)c4ccc(NCC5CCOCC5)c([N+](=O)[O-])c4)c(Oc4cnc5[nH]ccc5c4)c3)CC2)=C(c2ccc(Cl)cc2)C1 [Venetoclax] + COc1cc(Nc2ncc3c(n2)-c2ccc(Cl)cc2C(c2c(F)cccc2OC)=NC3)ccc1C(=O)O [Alisertib] (first compound max 1 µM, 7x7, partner max 10 µM)', 'Met');

----------
Item-by-item account of Bliss excess
- Test system: LU-99A (Non-Small Cell Lung Carcinoma)
- assay summary: Bliss excess, mean over the matrix (fraction); higher = more synergy
endpoint label: Bliss excess

INSERT INTO assay_data (compound, result) VALUES
  ('CC(=O)c1c(C)c2cnc(Nc3ccc(N4CCNCC4)cn3)nc2n(C2CCCC2)c1=O [Palbociclib] + Cn1cnc2c(F)c(Nc3ccc(Br)cc3Cl)c(C(=O)NOCCO)cc21 [Selumetinib] (first compound max 10 µM, 7x7, partner max 10 µM)', -0.0398),
  ('Cc1c2c(nn1C)CSCc1cc(n(C)n1)CSc1cc(c3ccccc3c1)OCCCc1c(C(=O)O)n(C)c3c-2c(Cl)ccc13 [AZD5991] + Cn1cnc2c(F)c(Nc3ccc(Br)cc3Cl)c(C(=O)NOCCO)cc21 [Selumetinib] (first compound max 1 µM, 7x7, partner max 3 µM)', -0.0363);

----------
- Test system: HCC2157 (Breast Carcinoma)
- assay summary: Bliss excess, mean over the matrix (fraction); higher = more synergy
endpoint label: Bliss excess

INSERT INTO measurements (molecule, assay_target, result_number) VALUES
  ('Cc1c2c(nn1C)CSCc1cc(n(C)n1)CSc1cc(c3ccccc3c1)OCCCc1c(C(=O)O)n(C)c3c-2c(Cl)ccc13 [AZD5991] + C=CCn1c(=O)c2cnc(Nc3ccc(N4CCN(C)CC4)cc3)nc2n1-c1cccc(C(C)(C)O)n1 [AZD1775] (first compound max 1 µM, partner max 1 µM)', 'HCC2157 (Breast Carcinoma)', -0.0438),
  ('COc1nnc2ccc(N3CCC(c4ccc(OCCN5CCN(C)C(=O)[C@H]5C)cc4)CC3)nn12 [AZD5153] + CCN(CCO)CCCOc1ccc2c(Nc3cc(CC(=O)Nc4cccc(F)c4)[nH]n3)ncnc2c1 [AZD2811] (first compound max 1 µM, 7x7, partner max 1 µM)', 'HCC2157 (Breast Carcinoma)', 0.0389),
  ('CC(=O)c1c(C)c2cnc(Nc3ccc(N4CCNCC4)cn3)nc2n(C2CCCC2)c1=O [Palbociclib] + CN(CC[C@H](CSC1=CC=CC=C1)NC2=C(C=C(C=C2)S(=O)(=O)NC(=O)C3=CC=C(C=C3)N4CCC(CC4)[C@H](C5=CC=CC=C5C6=CC=C(C=C6)Cl)O)S(=O)(=O)C(F)(F)F)CCO [AZD4320] (first compound max 10 µM, 7x7, partner max 1 µM)', 'HCC2157 (Breast Carcinoma)', 0.0149);

----------
- Test system: IGR-1 (Melanoma)
- assay summary: combination Emax (second highest fraction inhibited in the dose matrix, 72 h); higher = more inhibition; extreme values may be limits of the assay
Quick reference: combination Emax of the listed items.
endpoint label: combination Emax

INSERT INTO assay_data (compound, assay_target, result_number) VALUES
  ('CC1(C)CCC(CN2CCN(c3ccc(C(=O)NS(=O)(=O)c4ccc(NCC5CCOCC5)c([N+](=O)[O-])c4)c(Oc4cnc5[nH]ccc5c4)c3)CC2)=C(c2ccc(Cl)cc2)C1 [Venetoclax] + C1CN(CCC1(C(=O)N[C@@H](CCO)C2=CC=C(C=C2)Cl)N)C3=NC=NC4=C3C=CN4 [Capivasertib] (first compound max 1 µM, 7x7, partner max 3 µM)', 'IGR-1 (Melanoma)', 0.193),
  ('CC1(C)CCC(CN2CCN(c3ccc(C(=O)NS(=O)(=O)c4ccc(NCC5CCOCC5)c([N+](=O)[O-])c4)c(Oc4cnc5[nH]ccc5c4)c3)CC2)=C(c2ccc(Cl)cc2)C1 [Venetoclax] + Cn1cnc2c(F)c(Nc3ccc(Br)cc3Cl)c(C(=O)NOCCO)cc21 [Selumetinib] (first compound max 1 µM, 7x7, partner max 3 µM)', 'IGR-1 (Melanoma)', 0.301),
  ('COc1cccc(OCCCN)c1-c1cc(Nc2cnc(C#N)cn2)n[nH]1 [Prexasertib] + C=CCn1c(=O)c2cnc(Nc3ccc(N4CCN(C)CC4)cc3)nc2n1-c1cccc(C(C)(C)O)n1 [AZD1775] (first compound max 1 µM, partner max 1 µM)', 'IGR-1 (Melanoma)', 0.708);
